test system: Rattus norvegicus; test: Antihypertensive activity in spontaneous hypertensive rat assessed as change in systolic blood pressure at 100 mg/kg, po dosed at 0 hrs on day 1, 2 and 3 measured on day 3 by indirect tail-cuff method; assay type: functional, Artery
assay.endpoint: Activity (mmHg)
The figure you give is taken to be in mmHg; do not add the unit.

Solved cases (4 shown):
{"compound": "Cc1ccc(OC2CCN(CCc3c[nH]c4ccccc34)CC2)cc1", "assay.endpoint": "Activity", "meas.value": -57}
{"compound": "Cc1ccc(OC2CCCN(CCc3c[nH]c4ccccc34)C2)cc1 (centres undefined)", "assay.endpoint": "Activity", "meas.value": -12}
{"compound": "COc1ccc2[nH]cc(CCN3CCC(Oc4ccc(F)cc4)CC3)c2c1", "assay.endpoint": "Activity", "meas.value": -6}
{"compound": "Fc1ccc(OC2CCN(CCc3c[nH]c4ccccc34)CC2)cc1", "assay.endpoint": "Activity", "meas.value": -55}

Given COc1cc2[nH]c(C)c(CCN3CCC(Oc4ccc(C(F)(F)F)cc4)CC3)c2cc1OC , respond with its Activity.
-58

Given Clc1ccc(OC2CCN(CCc3c[nH]c4ccccc34)CC2)cc1 , respond with its Activity.
-54

Given Cc1cccc(OC2CCN(CCc3c[nH]c4ccccc34)CC2)c1 , respond with its Activity.
-14

Given Brc1ccc(OC2CCN(CCc3c[nH]c4ccccc34)CC2)cc1 , respond with its Activity.
-59

Given Cc1ccccc1OC1CCN(CCc2c[nH]c3ccccc23)CC1 , respond with its Activity.
-8

The measurements presented in this section are drawn from ChEMBL document CHEMBL3244144.
